Target: myeloperoxidase (MPO) (Homo sapiens (Human), UniProt P05164)
Sequence (P05164 49-745): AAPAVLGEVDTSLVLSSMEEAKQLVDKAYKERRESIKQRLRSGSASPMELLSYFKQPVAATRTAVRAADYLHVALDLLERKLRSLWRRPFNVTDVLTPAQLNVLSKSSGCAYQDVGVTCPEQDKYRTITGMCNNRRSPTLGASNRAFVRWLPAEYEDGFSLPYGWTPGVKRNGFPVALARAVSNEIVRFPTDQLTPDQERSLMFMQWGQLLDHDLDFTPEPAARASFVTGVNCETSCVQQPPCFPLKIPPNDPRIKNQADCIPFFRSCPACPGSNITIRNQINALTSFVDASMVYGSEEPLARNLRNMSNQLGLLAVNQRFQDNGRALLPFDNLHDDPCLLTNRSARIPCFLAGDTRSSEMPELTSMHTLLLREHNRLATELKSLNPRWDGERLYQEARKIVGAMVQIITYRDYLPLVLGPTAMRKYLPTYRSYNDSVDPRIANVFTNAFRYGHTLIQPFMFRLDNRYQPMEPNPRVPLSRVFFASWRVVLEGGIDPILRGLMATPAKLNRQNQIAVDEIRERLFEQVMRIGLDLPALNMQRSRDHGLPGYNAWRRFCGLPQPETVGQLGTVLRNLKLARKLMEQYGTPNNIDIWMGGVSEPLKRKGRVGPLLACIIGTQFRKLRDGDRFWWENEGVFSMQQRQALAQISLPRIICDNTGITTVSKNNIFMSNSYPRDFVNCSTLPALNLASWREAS
Experiment: MPO peroxidation assay (Amplex Red assay)
Format: biochemical
Details: potency range class
Reported IC50 values for a set of compounds

Worked examples follow.
Nc1cc(Cc2cnn(Cc3cc([C@@H]4CCNC4)ccc3Cl)c2)c2nn[nH]c2n1: 1 to 100 nM
Nc1cc(Cc2cnn(Cc3cccc([C@H]4CNC(=O)C4)c3)c2)c2nn[nH]c2n1: 1 to 100 nM
COc1cccc(Cn2cc(Cc3cc(N)nc4[nH]nnc34)cn2)c1: 1 to 100 nM
Nc1cc(Cc2cnn(Cc3cc(Cl)cc(-c4ccccc4)c3)c2)c2nn[nH]c2n1: 101 to 999 nM
Nc1cc(Cc2cnn(Cc3cccc(OC4CC4)c3)c2)c2nn[nH]c2n1: 1 to 100 nM

Ask | Which value of IC50 has been reported for Nc1cc(Cc2cnn(Cc3ccc(C(=O)NCc4ncn[nH]4)cc3)c2)c2nn[nH]c2n1 in the records?
Reply | 1 to 100 nM

Ask | Input CC(C)C1C[C@@H](c2cccc(Cn3cc(Cc4cc(N)nc5[nH]nnc45)cn3)c2)CN1 (stereo partly shown)
Reply | 1 to 100 nM

Ask | Input Cc1ccc([C@@H]2CCNC2)cc1Cn1cc(Cc2cc(N)nc3[nH]nnc23)cn1
Reply | 1 to 100 nM

Ask | Input Nc1cc(Cc2cnn(-c3ccc(F)cc3)c2)c2nn[nH]c2n1
Reply | 1 to 100 nM

Ask | Input Nc1cc(Cc2cnn(Cc3cccc(-c4ccccc4)c3)c2)c2nn[nH]c2n1
Reply | 1 to 100 nM

Ask | Input Nc1cc(Cc2cnn(Cc3ccc4c(c3)C(c3ccccc3)CNC4)c2)c2nn[nH]c2n1 (stereo not shown)
Reply | 1 to 100 nM

Ask | Input Nc1cc(Cc2cnn(Cc3cccc([C@@H]4CNCCO4)c3)c2)c2nn[nH]c2n1
Reply | 1 to 100 nM

Ask | Input COC(=O)CNCc1cccc(Oc2cccc(Cn3cc(Cc4cc(N)nc5[nH]nnc45)cn3)c2)c1
Reply | 1 to 100 nM

Ask | Input CN1CCC(c2cccc(Cn3cc(Cc4cc(N)nc5[nH]nnc45)cn3)c2)CC1
Reply | 101 to 999 nM

Ask | Input Nc1cc(Cn2nc3ccc(Cl)cc3n2)c2nn[nH]c2n1
Reply | 1000 to 10000 nM

Ask | Input Cc1nnc([C@@H]2C[C@@H](Oc3cccc(Cn4cc(Cc5cc(N)nc6[nH]nnc56)cn4)c3)CN2)o1
Reply | 1000 to 10000 nM

Ask | Input CN(C)Cc1cccc(Cn2cc(Cc3cc(N)nc4[nH]nnc34)cn2)c1
Reply | 1 to 100 nM

Ask | Input Nc1cc(Cc2ccc(-c3ccccc3)s2)c2nn[nH]c2n1
Reply | 1 to 100 nM

Ask | Input CS(=O)(=O)c1cccc(Cn2cc(Cc3cc(N)nc4[nH]nnc34)cn2)c1
Reply | 1 to 100 nM

Ask | Input Cc1cc(-n2cc(Cc3cc(N)nc4[nH]nnc34)cn2)ccc1F
Reply | 1 to 100 nM

Measured values drawn from patent US10407422B2 for this set.
